Below, each of the compounds is paired with its reported HC50 value.
test system: human volunteer donor erythrocytes; test: Hemolytic assay; assay type: cell-based; details: hemolysis in 50% of human erythrocytes, 1 h, 37 °C
Where a SMILES comes first, the peptide text is derived from it. [ ]: non-standard residue; d: D form. Orn = NCCC[C@H](N)C(=O)O

{"compound": "CC(C)C[C@@H]1NC(=O)[C@H](CCCN)NC(=O)[C@H](C(C)C)NC(=O)[C@@H]2CCCN2C(=O)[C@@H](Cc2ccccc2)NC(=O)[C@H](CC(C)C)NC(=O)[C@H](CCCN)NC(=O)[C@H](C(C)C)NC(=O)[C@@H]2CCCN2C(=O)[C@@H](Cc2ccccc2)NC1=O [Gramicidin S, reference compound] (cyclo(L[dF]PV[Orn]L[dF]PV[Orn]))", "HC50": "9.4 ± 0.8 µM"}
{"compound": "CCCCCCCC[P+](c1ccccc1)(c1ccccc1)N(CC)CC", "HC50": ">100 µM"}
{"compound": "CCCCCCCC[P+](c1ccccc1)(N(CC)CC)N(CC)CC", "HC50": ">100 µM"}
{"compound": "CCCCCC[P+](c1ccccc1)(c1ccccc1)N(CC)CC", "HC50": "> 100 µM"}
{"compound": "CCCCCCCC[P+](N(CC)CC)(N(CC)CC)N(CC)CC", "HC50": ">100 µM"}
